# SUBJECT OF TEST: alpha-synuclein (human, UniProt P37840 1-140)
# ASSAY PROTOCOL: SPR (Biacore 3000), IgG captured by anti-human IgG on CM5 chip, synuclein as analyte
Quick reference: KD improvement of the listed items.
ENDPOINT LABEL: KD improvement

{"columns": ["BINDER", "MEAS VALUE"],
 "data": [
  ["7C4 (antibody, V domains shown) VH: QVQLVQSGAEVKKPGASVKVSCKASGYTFTRYWMHWMRQAPGQGPEWIGRIDPNSGTTKYNVNFKTRATLTVDKSTSTAYMELSSLRSEDTAVYYCARLGHYGNLYAMDYWGQGTLVT VL: EIVLTQSPATLSLSPGERATLSCSASSSVSFMHWYQQKPGQAPRRWIYDTSKLASGVPARFSGSGSGTDYTLTISSLEPEDFAVYYCQQWSSNPPTFGQGTKLEIK", "7 fold (Ch2E6 = 1)"],
  ["2E6-HLD-1 (antibody, V domains shown, Humanized 2E6; also called h2E6-HLD-1; H2E6-HLD-1) VH: QVQLVQSGAEVKKPGASVKVSCKASGYTFTSYWMHWMRQAPGQGLEWIGRIDPNSGTTKYNVNFKTRATLTVDKSTSTAYMELSSLRSEDTAVYYCARLGHYGNLYAMDYWGQGTLVT VL: EIVLTQSPATLSLSPGERATLSCSASSSVSYMHWYQQKPGQAPRRWIYDTSKLASGVPARFSGSGSGTDYTLTISSLEPEDFAVYYCQQWSSNPPTFGQGTKLEIKR", "2.5 fold (Ch2E6 = 1)"],
  ["9C12 (antibody, V domains shown) VH: QVQLVQSGAEVKKPGASVKVSCKASGYTFTSYWMHWMRQAPGQGLEWIGRIDPNSGTTKYNVNIKTRATLTVDKSTSTAYMELSSLRSEDTAVYYCARLGHYGNLYAMDYWGQGTLVT VL: EIVLTQSPATLSLSPGERATLSCSASSSVSYMHWYQQKPGQAPRRLIYDTSKLASGVPARFSGSGSGTDYTLTISSLEPEDFAVYYCQQWSSNPPTFGQGTKLEIK", "10 fold (Ch2E6 = 1)"]
]}

These data points were gathered from patent US20200024337A1.
